SUBJECT_OF_TEST: human meprin α (Homo sapiens, UniProt Q16819)
Type: biochemical
EXPERIMENTAL_CONTEXT: meprin α over meprin β
# binarize SF: selectivity factor (Ki(app) meprin β/Ki(app) meprin α): threshold 8 inclusive, high side TRUE, low side FALSE

Request: Assess whether reported SF: selectivity factor (Ki(app) meprin β/Ki(app) meprin α) for COc1ccc(-c2n[nH]c(-c3ccccc3)c2CC(=O)NO)cc1 [14e] sits at 8 or higher.
Response: TRUE

Request: Assess whether reported SF: selectivity factor (Ki(app) meprin β/Ki(app) meprin α) for O=C(Cc1c(C2CCCC2)n[nH]c1-c1ccccc1)NO [14c] sits at 8 or higher.
Response: TRUE

Request: Assess whether reported SF: selectivity factor (Ki(app) meprin β/Ki(app) meprin α) for O=C(Cc1c(-c2ccccc2)nn(Cc2ccccc2)c1-c1ccccc1)NO [21e] sits at 8 or higher.
Response: TRUE

Request: Assess whether reported SF: selectivity factor (Ki(app) meprin β/Ki(app) meprin α) for O=C(Cc1c([C@@H]2CCCC[C@@H]2C(=O)O)n[nH]c1-c1cccc(C(=O)O)c1)NO (relative stereo) [16k] sits at 8 or higher.
Response: TRUE

Request: Assess whether reported SF: selectivity factor (Ki(app) meprin β/Ki(app) meprin α) for O=C(Cc1c(-c2cc(O)no2)n[nH]c1-c1ccccc1)NO [14n] sits at 8 or higher.
Response: FALSE

Request: Assess whether reported SF: selectivity factor (Ki(app) meprin β/Ki(app) meprin α) for O=C(Cc1c(C2CCCC(C(=O)O)C2)n[nH]c1-c1ccccc1)NO (stereo not shown) [14r] sits at 8 or higher.
Response: TRUE

Request: Assess whether reported SF: selectivity factor (Ki(app) meprin β/Ki(app) meprin α) for O=C(Cc1c(-c2cc(F)c(O)c(Cl)c2)n[nH]c1-c1ccccc1)NO [14m] sits at 8 or higher.
Response: FALSE

Request: Assess whether reported SF: selectivity factor (Ki(app) meprin β/Ki(app) meprin α) for O=C(Cc1c(-c2ccc(C(=O)O)cc2)n[nH]c1-c1cccc(C(=O)O)c1)NO [16g] sits at 8 or higher.
Response: FALSE

Request: Assess whether reported SF: selectivity factor (Ki(app) meprin β/Ki(app) meprin α) for O=C(Cc1c(-c2ccc3c(c2)OCO3)n[nH]c1-c1ccc(C(=O)O)cc1)NO [16f] sits at 8 or higher.
Response: TRUE

Request: Assess whether reported SF: selectivity factor (Ki(app) meprin β/Ki(app) meprin α) for COc1cccc(-c2n[nH]c(-c3ccccc3)c2CC(=O)NO)c1 [14d] sits at 8 or higher.
Response: TRUE

###

SUBJECT_OF_TEST: MMP2 (Homo sapiens)
Sequence (P08253 110-660): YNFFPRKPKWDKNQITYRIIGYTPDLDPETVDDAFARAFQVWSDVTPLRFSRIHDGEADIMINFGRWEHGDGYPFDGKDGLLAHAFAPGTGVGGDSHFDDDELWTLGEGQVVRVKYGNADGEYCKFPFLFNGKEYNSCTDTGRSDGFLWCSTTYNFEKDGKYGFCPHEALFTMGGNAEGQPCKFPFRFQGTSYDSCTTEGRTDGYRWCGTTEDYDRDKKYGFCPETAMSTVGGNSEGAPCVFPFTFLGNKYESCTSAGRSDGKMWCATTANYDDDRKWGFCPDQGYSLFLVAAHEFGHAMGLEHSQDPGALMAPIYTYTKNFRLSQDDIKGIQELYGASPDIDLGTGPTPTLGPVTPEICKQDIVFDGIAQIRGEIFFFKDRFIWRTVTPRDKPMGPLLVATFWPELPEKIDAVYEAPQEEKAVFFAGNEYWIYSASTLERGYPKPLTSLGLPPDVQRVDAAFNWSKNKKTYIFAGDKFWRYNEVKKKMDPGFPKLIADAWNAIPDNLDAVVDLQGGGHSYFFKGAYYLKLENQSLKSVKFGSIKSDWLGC
ASSAY_OVERVIEW: Off-target metalloprotease inhibition, MMP2
Type: biochemical
EXPERIMENTAL_CONTEXT: read-out: Residual activity MMP2
Known remaining activity at 10 µM of a selection of compounds
Field format: number, assumed %, no unit text.

O=C(Cc1c(-c2ccccc2)nn(Cc2ccc(C(=O)O)cc2)c1-c1ccccc1)NO [21h]
85
O=C(Cc1c(-c2ccccc2)nn(Cc2cccc(C(=O)O)c2)c1-c1ccccc1)NO [21g]
89

Request: If you can, please state the reported remaining activity at 10 µM value of O=C(Cc1c(-c2cccc(C(=O)O)c2)n[nH]c1-c1cc(F)c(O)c(Cl)c1)NO [16j] .
Response: 95

###

SUBJECT_OF_TEST: MMP9 (Homo sapiens)
Sequence (P14780 107-707 limits assumed): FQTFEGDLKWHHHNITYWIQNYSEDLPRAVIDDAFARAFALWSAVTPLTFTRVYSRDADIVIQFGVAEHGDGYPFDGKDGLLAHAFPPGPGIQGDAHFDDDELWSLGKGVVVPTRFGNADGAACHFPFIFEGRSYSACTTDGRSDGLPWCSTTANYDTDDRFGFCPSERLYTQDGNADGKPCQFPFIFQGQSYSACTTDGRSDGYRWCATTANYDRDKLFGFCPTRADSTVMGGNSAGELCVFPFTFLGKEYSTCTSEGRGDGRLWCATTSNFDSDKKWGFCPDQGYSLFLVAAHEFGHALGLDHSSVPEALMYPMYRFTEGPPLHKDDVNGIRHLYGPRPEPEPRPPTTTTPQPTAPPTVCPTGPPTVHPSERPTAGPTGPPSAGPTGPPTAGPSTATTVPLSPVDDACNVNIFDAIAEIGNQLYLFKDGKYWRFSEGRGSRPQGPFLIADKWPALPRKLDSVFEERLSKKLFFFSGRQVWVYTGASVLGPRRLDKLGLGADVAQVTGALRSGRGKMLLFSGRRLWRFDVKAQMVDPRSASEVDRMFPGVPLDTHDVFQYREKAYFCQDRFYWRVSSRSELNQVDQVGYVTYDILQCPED
ASSAY_OVERVIEW: Off-target metalloprotease inhibition, MMP9
Type: biochemical
EXPERIMENTAL_CONTEXT: read-out: Residual activity MMP9
Label key: met means remaining activity at 10 µM under 80%; not met means remaining activity at 10 µM of 80% or more.

O=C(Cc1c(-c2cc(F)c(O)c(Cl)c2)n[nH]c1-c1ccccc1)NO [14m]
not met
O=C(Cc1c(-c2cccc(C(=O)O)c2)n[nH]c1-c1cc(F)c(O)c(Cl)c1)NO [16j]
not met
O=C(Cc1c(-c2ccccc2)nn(Cc2cccc(C(=O)O)c2)c1-c1ccccc1)NO [21g]
not met
O=C(Cc1c(-c2ccccc2)nn(Cc2ccc(Cl)c(O)c2F)c1-c1ccccc1)NO [21i]
met

Request: Would you kindly verify if remaining activity at 10 µM of O=C(Cc1c(-c2ccccc2)nn(Cc2ccc3c(c2)OCO3)c1-c1ccccc1)NO [21f] is strictly less than 80%?
Response: met

Request: Would you kindly verify if remaining activity at 10 µM of COc1ccc(-c2n[nH]c(-c3ccccc3)c2CC(=O)NO)cc1OC [14g] is strictly less than 80%?
Response: not met

Request: Would you kindly verify if remaining activity at 10 µM of O=C(Cc1c(-c2ccc3c(c2)OCO3)n[nH]c1-c1ccc2c(c1)OCO2)NO [16a] is strictly less than 80%?
Response: met

Request: Would you kindly verify if remaining activity at 10 µM of O=C(CCc1c(-c2ccccc2)nn(Cc2ccc(Cl)c(O)c2F)c1-c1ccccc1)NO is strictly less than 80%?
Response: not met

Request: Would you kindly verify if remaining activity at 10 µM of O=C(Cc1c(-c2ccc3c(c2)OCO3)n[nH]c1-c1ccccc1)NO [14f] is strictly less than 80%?
Response: met

###

// human meprin β (Homo sapiens, UniProt Q16820) Ki records
Field format: number, assumed nM, no unit text.

O=C(Cc1c(-c2ccccc2)nn(Cc2cccc(C(=O)O)c2)c1-c1ccccc1)NO [21g]
10.6
O=C(Cc1c(-c2ccccc2)nn(Cc2ccc(Cl)c(O)c2F)c1-c1ccccc1)NO [21i]
9.3
O=C(Cc1c(-c2ccccc2)nn(Cc2ccccc2)c1-c1ccccc1)NO [21e]
291

Request: Lab request: please report Ki under test system human meprin β (Homo sapiens, UniProt Q16820) for O=C(Cc1c(-c2ccccc2)nn(Cc2ccc(C(=O)O)cc2)c1-c1ccccc1)NO [21h]
Response: 9.4

Request: Lab request: please report Ki under test system human meprin β (Homo sapiens, UniProt Q16820) for O=C(Cc1c(-c2ccccc2)nn(-c2cccc(C(=O)O)c2)c1-c1ccccc1)NO [21c]
Response: 212

Request: Lab request: please report Ki under test system human meprin β (Homo sapiens, UniProt Q16820) for O=C(Cc1c(-c2ccc(C(=O)O)cc2)n[nH]c1-c1cccc(C(=O)O)c1)NO [16g]
Response: 32.5

Request: Lab request: please report Ki under test system human meprin β (Homo sapiens, UniProt Q16820) for O=C(Cc1c(-c2cccc(C(=O)O)c2)n[nH]c1-c1cccc(C(=O)O)c1)NO [16b]
Response: 14.5

Request: Lab request: please report Ki under test system human meprin β (Homo sapiens, UniProt Q16820) for O=C(Cc1c(-c2ccccc2)nn(-c2ccc(C(=O)O)cc2)c1-c1ccccc1)NO [21d]
Response: 182

Request: Lab request: please report Ki under test system human meprin β (Homo sapiens, UniProt Q16820) for O=C(Cc1c(-c2cccc(C(=O)O)c2)n[nH]c1-c1cc(F)c(O)c(Cl)c1)NO [16j]
Response: 0.2

Request: Lab request: please report Ki under test system human meprin β (Homo sapiens, UniProt Q16820) for O=C(Cc1c([C@@H]2CCCC[C@@H]2C(=O)O)n[nH]c1-c1cccc(C(=O)O)c1)NO (relative stereo) [16k]
Response: 5.2

Request: Lab request: please report Ki under test system human meprin β (Homo sapiens, UniProt Q16820) for O=C(Cc1c(-c2ccc(C(=O)O)cc2)n[nH]c1-c1ccc(Cl)c(O)c1F)NO [16h]
Response: 11.2

###

Known SF: selectivity factor (Ki(app) meprin β/Ki(app) meprin α) of a selection of compounds
SUBJECT_OF_TEST: human meprin α (Homo sapiens, UniProt Q16819)
Sequence (Q16819 66-746): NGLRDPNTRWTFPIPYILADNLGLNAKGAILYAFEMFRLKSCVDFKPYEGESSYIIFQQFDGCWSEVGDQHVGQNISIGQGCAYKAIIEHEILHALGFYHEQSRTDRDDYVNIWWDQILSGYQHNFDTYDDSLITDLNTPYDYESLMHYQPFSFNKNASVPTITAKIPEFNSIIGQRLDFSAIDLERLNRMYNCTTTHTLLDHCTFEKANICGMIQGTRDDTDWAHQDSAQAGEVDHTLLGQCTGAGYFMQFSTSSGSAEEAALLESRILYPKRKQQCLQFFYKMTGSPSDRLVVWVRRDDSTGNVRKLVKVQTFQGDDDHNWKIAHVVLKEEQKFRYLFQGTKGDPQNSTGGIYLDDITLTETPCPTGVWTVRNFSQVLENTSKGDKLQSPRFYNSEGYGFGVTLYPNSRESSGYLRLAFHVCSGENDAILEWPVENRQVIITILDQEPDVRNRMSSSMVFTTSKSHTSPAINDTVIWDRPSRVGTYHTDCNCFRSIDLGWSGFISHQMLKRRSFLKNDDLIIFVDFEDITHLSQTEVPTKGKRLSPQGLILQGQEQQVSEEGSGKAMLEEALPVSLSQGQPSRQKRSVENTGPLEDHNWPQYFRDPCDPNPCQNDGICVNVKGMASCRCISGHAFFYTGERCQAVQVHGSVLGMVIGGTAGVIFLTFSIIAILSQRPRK
Format: biochemical
EXPERIMENTAL_CONTEXT: meprin α over meprin β

O=C(Cc1c(-c2ccc(Cl)c(O)c2F)n[nH]c1-c1ccccc1)NO [14l]
31
O=C(Cc1c(-c2ccc3c(c2)OCO3)n[nH]c1-c1cccc(C(=O)O)c1)NO [16e]
15
O=C(Cc1c(-c2ccccc2)nn(-c2ccc(C(=O)O)cc2)c1-c1ccccc1)NO [21d]
46
O=C(Cc1c(-c2c[nH]nc2C(F)(F)F)n[nH]c1-c1ccccc1)NO [14o]
55
COc1ccc(-c2n[nH]c(-c3ccccc3)c2CC(=O)NO)cc1OC [14g]
117

Request: Lab request: please report SF: selectivity factor (Ki(app) meprin β/Ki(app) meprin α) under test system human meprin α (Homo sapiens, UniProt Q16819) for O=C(Cc1c(-c2cccc(C(=O)O)c2)[nH]nc1[C@H]1CC[C@H](C(=O)O)CC1)NO [16l]
Response: 1

Request: Lab request: please report SF: selectivity factor (Ki(app) meprin β/Ki(app) meprin α) under test system human meprin α (Homo sapiens, UniProt Q16819) for O=C(Cc1c(-c2ccc3c(c2)OCO3)n[nH]c1-c1ccccc1)NO [14f]
Response: 99

Request: Lab request: please report SF: selectivity factor (Ki(app) meprin β/Ki(app) meprin α) under test system human meprin α (Homo sapiens, UniProt Q16819) for N#Cc1cccc(-c2n[nH]c(-c3ccccc3)c2CC(=O)NO)c1 [14h]
Response: 67

Request: Lab request: please report SF: selectivity factor (Ki(app) meprin β/Ki(app) meprin α) under test system human meprin α (Homo sapiens, UniProt Q16819) for O=C(Cc1c(-c2ccccc2)nn(-c2cccc(C(=O)O)c2)c1-c1ccccc1)NO [21c]
Response: 53
